- target-desc: Aldehyde dehydrogenase 1A1 (Homo sapiens)
- experimental-details: qHTS Assay for Inhibitors of Aldehyde Dehydrogenase 1 (ALDH1A1)
- cond: Purified ALDH1A1, NADH fluorescence, propionaldehyde substrate; series mostly up to 75.3 µM
Among all 220,000 compounds or so, about 16,000 (7.3%) were called active. Roughly 25% stayed inconclusive and do not appear here. Calls come from the whole dose curve; as a rule, active = well fitted inhibition curve with a large enough effect (not every such curve was filed as active); inconclusive = small, poorly fitted or top-dose-only effect, or another doubt; inactive = no such curve, though single readings can be large or run the other way. This is one part of a sample in which actives are shown more often than they occur.
Outcome codes: active, inactive

- Cc1cccc(NC(=O)CSc2nnc(-c3ccco3)o2)c1: inactive
- CN(C(=O)CC(NC(=O)c1ccccc1)(c1ccccc1)c1ccccc1)c1ccccc1: inactive
- CC(C)N(C(=O)c1ccc(-c2ccccc2F)cc1)C(C)C: inactive
- C/C=C/c1ccc(OCCOc2ccc(C=O)cc2OC)c(OC)c1: inactive
- CCOC(=O)C1(Cc2cccc(OC)c2)CCN(C(C)CC(C)(C)O)CC1 (stereo unspecified): active
- COc1ccc(/C=N/NC(=O)Nc2ccc3nsnc3c2)c(OC)c1: inactive
- Cn1c(-c2ccccc2)c[n+]2c1CCCCC2: inactive
- CCN(CC)S(=O)(=O)c1ccc(Cl)c(NC(=O)c2ccncc2)c1: active
- CCN(CC)S(=O)(=O)c1cccc(C(=O)Nc2ccccc2)c1: inactive
- Cc1ccc(C(=O)C(=S)N2CCOCC2)cc1: inactive
- CCOC(=O)C1=C(C)NC(C)=C(C(=O)OCC)C1c1ccccn1: inactive
- Cc1ccc(C2C3=C(Nc4[nH]n(-c5ccccc5)c(=O)c42)c2ccccc2C3=O)cc1 (stereo unspecified): active
- O=c1[nH]oc(O)c1-c1ncc(C(F)(F)F)cc1Cl: inactive
- COC(=O)C(=Nc1ccccc1)/C(C(=O)C(=O)N(C)c1ccccc1)=C(\O)c1ccc(Cl)cc1: active
- CO/N=C(\N)c1ccc([N+](=O)[O-])cc1: inactive
- CC1Cc2ccccc2N1S(=O)(=O)c1c(N)n(C)c(=O)n(C)c1=O (stereo unspecified): inactive
- Cc1ccc(CNC(=O)c2cccnc2Cl)cc1: inactive
- Oc1ccc(N=Nc2nccs2)c(O)c1: inactive
- COc1ccccc1C(=O)Nn1c(-c2cccs2)nc2ccccc2c1=O: inactive
- COc1ccc(N(C)S(=O)(=O)c2cccc3nsnc23)cc1: inactive
- CCC(C)CN1CCC(CO)(Cc2ccccc2Cl)CC1 (stereo unspecified): inactive
- C[C@H](NC(=O)c1ccccc1Cl)C(=O)OCCOc1cccc(Cl)c1: inactive
- O=C(NN1C(=O)C2C3C=CC(O3)C2C1=O)c1ccncc1 (stereo unspecified): active
- CCCNC(=O)c1c(Cl)cnn1-c1ccc(C)cc1: inactive
- Cc1ccc2c(c1)C1CN(C)CCC1N2C(=S)Nc1ccc(Cl)cc1Cl (stereo unspecified): inactive
- COC(=O)C1=C(NC(=O)C(C)(C)C)CCS1: inactive
- CCOC(=O)C1(Cc2cccc(OC)c2)CCN(C(C)COC)CC1 (stereo unspecified): inactive
- O=C(COc1ccc(NC(=O)c2ccccc2[N+](=O)[O-])cc1)c1ccc(F)cc1: inactive
- CCO[C@H]1OC(C(=O)NCc2ccccc2)=C[C@@H](c2coc3ccccc3c2=O)[C@@H]1CCCO: inactive
- Cc1ccc(N=Nc2c(C)[nH]n(-c3ccccc3)c2=O)cc1: inactive
- COC(=O)/C(NC(C)=O)=C(\C)c1ccc(Cl)cc1: inactive
- COc1ccc(C(=O)C2CCCN(C(=O)c3cc4nc(C)cc(C)n4n3)C2)cc1F (stereo unspecified): inactive
- CC1CCC(C(C)C)C(=O)/C1=C\c1ccc(NC(=O)CCC(=O)O)cc1 (stereo unspecified): inactive
- Cn1cc(CN2CCC(C(O)CCc3ccccc3)CC2)c(-c2ccccc2F)n1 (stereo unspecified): inactive
- COc1cc(/C=C2/C(=O)ON=C2C)ccc1OCc1cccc(F)c1: active
- O=C(Nc1ccc2c(c1)OCCO2)c1ccncc1: inactive
- CN(C)c1ccnc(Nc2ccc(F)cc2)c1C#N: inactive
- COc1cc(/C=C2/C(=O)ON=C2C)ccc1OCc1ccccc1F: inactive
- COc1cccc(CC(=O)N2CCCC(CCC(=O)N3CCN(c4ccccn4)CC3)C2)c1 (stereo unspecified): inactive
- Cc1nn(Cc2ccc(F)cc2)c(C)c1NC(=O)c1cccnc1Cl: inactive
- O=C(NN1C(=O)C2C3C=CC(C3)C2C1=O)c1ccco1 (stereo unspecified): inactive
- CCN(CC)S(=O)(=O)c1ccc(NC(=O)c2cccnc2Cl)c(NC(=O)c2cccnc2Cl)c1: active
- CCOc1cc(C(=S)N2CCOCC2)ccc1O: active
- O=C(Nc1ccc(N2CCOCC2)cc1)c1ccc2c(c1)OCO2: inactive
- O=[N+]([O-])c1ccc(Sc2n[nH]c(-c3ccco3)n2)nc1: inactive
- Cc1cccc(NC(=O)c2sc3nc4c(c(-c5ccco5)c3c2N)CCC4)c1: active

====

- target-desc: Aldehyde dehydrogenase 1A1 (Homo sapiens) (UniProt P00352)
- Sequence (P00352 whole entry, looked up): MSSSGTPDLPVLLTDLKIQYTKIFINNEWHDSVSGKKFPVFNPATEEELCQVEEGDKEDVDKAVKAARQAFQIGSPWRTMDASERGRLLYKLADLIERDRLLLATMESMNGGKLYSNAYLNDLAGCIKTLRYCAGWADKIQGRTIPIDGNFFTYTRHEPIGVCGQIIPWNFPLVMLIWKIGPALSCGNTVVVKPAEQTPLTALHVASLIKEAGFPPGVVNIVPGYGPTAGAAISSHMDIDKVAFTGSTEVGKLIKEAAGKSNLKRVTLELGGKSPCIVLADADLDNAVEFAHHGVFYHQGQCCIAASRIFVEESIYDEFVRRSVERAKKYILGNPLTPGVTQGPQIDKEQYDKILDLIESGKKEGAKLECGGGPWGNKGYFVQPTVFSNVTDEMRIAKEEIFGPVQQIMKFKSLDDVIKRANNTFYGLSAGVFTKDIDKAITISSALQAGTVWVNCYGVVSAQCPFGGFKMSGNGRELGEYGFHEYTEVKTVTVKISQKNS
- experimental-details: qHTS Assay for Inhibitors of Aldehyde Dehydrogenase 1 (ALDH1A1); note: potency is the fitted concentration of half-maximal effect
- cond: Purified ALDH1A1, NADH fluorescence, propionaldehyde substrate; series mostly up to 75.3 µM
About 16,000 (7.3%) of roughly 220,000 compounds were called active. Another 25% or so got no clear call; they are omitted. Only a selection was taken, and actives are over-represented in it overall.
measured-quantity: Potency

* O=C(Oc1cccc(O)c1)C1CCCCC1 | inactive
* CN1CCN(CCCCOc2ccccc2-c2ccccc2)CC1 | 10 µM (active)
* N#Cc1c(/N=C/N2CCCC2)oc(-c2ccccc2)c1-c1ccccc1 | 7.94 µM (active)
* CCn1c(SCC(=O)N(C)C2CCS(=O)(=O)C2)nnc1-c1cccs1 (centres undefined) | inactive
* CO/N=C/c1cn(-c2ccc(Cl)cc2)nn1 | inactive
* CN(C)C(=O)N1CCNCC1 | inactive
* CC(C)(C)C(=O)N(Cc1ccccc1)c1ccccn1 | inactive
* CC(=O)NCC(=O)N(Cc1ccco1)C1(C(=O)NC2CCCC2)CCCCC1 | inactive
* Cc1ccc(C)c(NC(=S)NCC(c2cccnc2)N2CCOCC2)c1 (centres undefined) | inactive
* CC1CCCN(CCOCCOc2ccccc2-c2ccccc2)C1 (centres undefined) | inactive
* O=C(Nc1ccc2c(c1)CCC2)c1ccc(Br)s1 | inactive
* CC(C)(C)c1cnnn1-c1ccc([N+](=O)[O-])cc1 | inactive
* O=C(c1ccco1)N1CCN(C(=O)C2CC(c3ccc(Cl)c(Cl)c3)=NO2)CC1 (centres undefined) | inactive
* O=C1CCCC(O)=C1N=Nc1ccc2ncsc2c1 | 25.1 µM (active)
* CC(C(=O)O)n1cnc2sc3c(c2c1=O)CCCC3 (centres undefined) | inactive
* CN1CCN(C(=O)/C(=C\c2ccc3c(c2)OCO3)NC(=O)c2cccs2)CC1 | inactive
* COC(=O)C1=C(C)N(C)C(=S)NC1c1cc(OC)ccc1OC (centres undefined) | inactive
* N#Cc1c(NC(=O)CCCl)sc2c1CCCCC2 | inactive
* COc1ccc(CC(N)C(=O)NC2C(O)[C@H](n3cnc4c(N(C)C)ncnc43)O[C@@H]2CO)cc1 (some centres undefined) | inactive
* CCOC(=O)C1=C(CC)OC(N)=C(C#N)C1c1ccc(F)cc1F (centres undefined) | inactive
* Cc1ccc(Cl)cc1NC(=O)c1ccccn1 | inactive
* O=C(c1ccco1)N1CCN(C(=O)C2c3ccccc3Oc3ccccc32)CC1 | 8.91 µM (active)
* CC(=O)Oc1ccccc1C1=NN(C(C)=O)C(c2ccccc2)C1 (centres undefined) | inactive
* C=CS(=O)c1sc(Cl)c(N2CCOCC2)c1[N+](=O)[O-] (centres undefined) | 2 µM (active)

====

- target-desc: Aldehyde dehydrogenase 1A1 (Homo sapiens) (UniProt P00352)
- experimental-details: qHTS Assay for Inhibitors of Aldehyde Dehydrogenase 1 (ALDH1A1)
- cond: Purified ALDH1A1, NADH fluorescence, propionaldehyde substrate; series mostly up to 75.3 µM
The campaign covered roughly 220,000 compounds. About 16,000 (7.3%) were called active. Inconclusive results (about 25%) are left out. The call rests on the fitted dose curve; in most records, active means well fitted inhibition curve with a large enough effect (not every such curve was filed as active); inconclusive means small, poorly fitted or top-dose-only effect, or another doubt; inactive means no such curve, though single readings can be large or run the other way. Many of the other results were omitted from the sample, so actives are more common in it than they were.
Outcome codes: 1.0 = active, 0.0 = inactive

• COc1ccc(/C=N\NC(=O)c2sc(N)nc2C)cc1OC = 0.0
• COc1ccc(/C=N/NC(=O)c2ccc(Cl)cc2)cc1COC(C)=O = 0.0
• COc1cc(/C=N/NC(=O)c2ccccc2)ccc1OS(=O)(=O)c1ccccc1 = 1.0
• Cc1onc(C(=O)NN)c1-c1csc(COc2ccccc2)n1 = 0.0
• COc1cccc(/C=N/NC(=O)c2cccc([N+](=O)[O-])c2)c1OS(=O)(=O)c1ccc(C)cc1 = 0.0
• O=C(NCc1ccc2c(c1)OCO2)c1ccc(Cl)s1 = 0.0
• O=C(NCc1ccc2c(c1)OCO2)c1sccc1Br = 0.0
• O=C1/C(=C\c2ccsc2)NC(=S)N1c1ccccc1 = 1.0
• O=C(O)c1ccc(NC(=O)c2cn(-c3ccccc3)nc2-c2ccc(Cl)cc2)cc1 = 0.0
• O=C(CS(=O)(=O)Cc1ccccc1)NCC1CCCO1 (stereo unspecified) = 1.0
• CC1=CC(C)(C)NC(=S)N1c1ccccc1 = 0.0
